- Assayed Target: Peptidyl-prolyl cis-trans isomerase NIMA-interacting 1 (Homo sapiens, UniProt Q13526)
- Sequence (Q13526 whole entry): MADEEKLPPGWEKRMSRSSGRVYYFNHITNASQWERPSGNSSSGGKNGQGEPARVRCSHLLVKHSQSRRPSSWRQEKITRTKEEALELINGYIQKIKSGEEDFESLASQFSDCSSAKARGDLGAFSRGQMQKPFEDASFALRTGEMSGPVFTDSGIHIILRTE
- Measurement Description: Inhibition of recombinant N-terminal His6-tagged human Pin1 at 10 uM using Suc-Ala-Glu-cis-Pro-Phe-4-nitroanilide as substrate preincubated for 30 mins followed by substrate addition measured for 90 secs
Recorded Metric: inhibition (%)

[a] C[C@H]1[C@H](C)CC[C@]2(C)CC[C@]3(C)C(=CC(=O)[C@@H]4[C@@]5(C)CC[C@@H](OC(=O)COc6ccc(-c7cc(-c8ccccc8)[nH]n7)cc6)[C@](C)(C(=O)O)[C@@H]5CC[C@]43C)[C@H]12
[b] C[C@H]1[C@H](C)CC[C@]2(C)CC[C@]3(C)C(=CC(=O)[C@@H]4[C@@]5(C)CC[C@@H](OC(=O)CN6CCCCC6)[C@](C)(C(=O)O)[C@@H]5CC[C@]43C)[C@H]12
### Prompt Parameter metric = inhibition. Return the lower-valued option from a and b . Answer format: the label of the selected item.
### Response a
(a: 66%, b: 95%)
